FYI, the data here is from PubChem BioAssay AID1159580.

assay: chemical genetic growth profiling, strain panel (AID 1159580);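 further: tested at 20 µM; growth read once vehicle control cultures reached saturation at 30 °C; 1 = growth at the plate median or of vehicle wells; lower values mean less growth of the strain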; details: S. cerevisiae deletion strains, growth OD, locus YIL147C, strain SLN1, hits give low values
In all, about 5,500 compounds went through this assay and about 2,000 (36%) were called active. About 18% were inconclusive and are not listed. Some of the results follow.
Please provide measured normalized growth for the entries that follow.
The response must contain the number and no unit.

Look up normalized growth: `Cc1cc(C(=O)Nc2ccc(Cl)cc2)nn1C(C)(C)C`
0.998

Look up normalized growth: OC1(C(F)(F)F)CC(C23CC4CC(CC(C4)C2)C3)=NN1 (stereo not drawn)
0.889

Look up normalized growth: `CC(C)(C)CN/C(C#N)=C(/C#N)NCc1cccc(Cl)c1`
1

Look up normalized growth: `CCOC(=O)CSC(=S)NCc1ccc(C)cc1`
0.951

Look up normalized growth: `Cc1nn(Cc2cccc(C(=O)Nc3ccc(Cl)cc3)c2)c(C)c1Br`
0.978

Look up normalized growth: `Cc1cc(Cl)ccc1NNC(=O)c1ccno1`
0.971

Look up normalized growth: `Cc1nnsc1C(=O)NNc1ccc(F)cc1F`
0.967

Look up normalized growth: `O=S(=O)(Nc1cccc(CCc2ccccn2)c1)c1cc(Cl)c(Cl)cc1Cl`
0.985

Look up normalized growth: `Cc1ccccc1C(=O)Oc1ccc(C(F)(F)F)cc1[N+](=O)[O-]`
0.97

Look up normalized growth: COc1cc2c(cc1OC)C(C)N(C(=O)c1sc3ccccc3c1Cl)CC2 (stereo not drawn)
0.984

Look up normalized growth: `COc1ccc(CN2CSC(=S)N(Cc3ccc(OC)cc3)C2)cc1`
0.95

Look up normalized growth: `COc1cc(NC(=S)N(C)C)c(OC)cc1Cl`
0.984

Look up normalized growth: `COc1ccc(NNC(=O)c2sc3ccccc3c2Cl)cc1`
0.924

Look up normalized growth: CS(=NC(=O)c1cccc(Cl)c1)c1ccc(OC(=O)c2ccc(Cl)cc2)cc1 (stereo not drawn)
0.958

Look up normalized growth: `COc1ccc(/C=C2\CSc3ccc(F)cc3C2=O)cc1`
0.969

Look up normalized growth: `Cc1nnsc1C(=O)NNc1c(Cl)cccc1Cl`
0.981

Look up normalized growth: `O=C(CSc1nnnn1-c1ccccc1)c1ccccc1`
0.948

Look up normalized growth: `Cc1c(Cc2ccc(F)cc2)c(=O)oc2cc(O)ccc12`
0.983
